src = patent US20170044545

This section presents binders with their documented pIC50 values.
studySystem: Autotaxin (ENPP2, NPP2) (Homo sapiens, UniProt Q13822 Q13822:36-863)
procedureDetails: inhibition
Keep it numeric: pIC50 is minus log10 of the concentration in mol/L.

Sample records with pIC50:
# binder, assayMetric, experimentalValue
records = [
    ("UCUGAGGGAAACAGGUUUUGCUCCUCGGA (ssRNA, 2'-F all pyrimidines; 2'-OMe G4 A5 G6 G7 G27 G28 A29; other purines 2'-OH) [SEQ 16(1)]", "pIC50", 7.77),
    ("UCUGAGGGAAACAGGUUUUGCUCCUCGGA (mixed, as 16(21) with 5' 80 kDa PEG (GL4-800GS2)-ssH linker instead of 5' idT) [SEQ 16(45)]", "pIC50", 7.89),
]

Input: Requested field: pIC50. Item: UCUGAGGGAAACAGGCUUUGCUCCUCGGA (ssRNA, 2'-F pyrimidines, 2'-OH purines) [SEQ 31]
Output: 6.89

Input: Also UCUGAGGGAACAGGUUUUGCUCCUCGGA (ssRNA, 2'-F pyrimidines, 2'-OH purines) [SEQ 37] , if possible.
Output: 6.14
